Recorded values, source patent US10144715B2.

biological target: Gal4 DNA binding domain fused to the LBD of LXRα in HEK293 cells (Homo sapiens (Human)); assay: LXR luciferase transcriptional reporter gene assay, agonist mode, LXRα; assay type: cell-based; settings: read-out: Cell LXRα EC50
Sequence (Q13133 209-447): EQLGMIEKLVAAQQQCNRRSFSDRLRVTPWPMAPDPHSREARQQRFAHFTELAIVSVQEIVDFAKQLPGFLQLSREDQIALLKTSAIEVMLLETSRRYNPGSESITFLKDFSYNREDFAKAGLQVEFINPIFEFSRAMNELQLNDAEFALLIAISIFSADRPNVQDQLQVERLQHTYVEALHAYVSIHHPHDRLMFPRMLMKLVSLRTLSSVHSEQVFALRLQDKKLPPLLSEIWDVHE
endpoint: pEC50
As a rule, pEC50 stands for the negative log10 of the concentration, concentration in M.

Past entries and their recorded results:
{"columns": ["compound", "endpoint", "measurement"],
 "data": [
  ["CS(=O)(=O)c1cccc(N2CCN(CC3CCN(CC(F)(F)F)CC3)[C@@H](c3ccccc3Cl)C2)c1 (single isomer, unassigned)", "pEC50", 5.67],
  ["Cc1ccc(N2CCN(c3cccc(S(C)(=O)=O)c3)C[C@H]2C(C)C)nc1C1CC1", "pEC50", 5.46],
  ["CC(C)[C@@H]1CN(c2ccc(F)c(S(C)(=O)=O)c2)CCN1c1ccnc(OC(F)F)c1", "pEC50", 6.59]
]}

Name the reported pEC50 value associated with the compound CS(=O)(=O)c1cc(N2CCN(C[C@H]3CC[C@H](C(F)(F)F)CC3)[C@@H](c3ccccc3)C2)ccc1C(N)=O (single isomer, unassigned)
4.80

Name the reported pEC50 value associated with the compound "CC(C)[C@H]1CN(c2ccc(CO)c(S(C)(=O)=O)c2)CCN1C[C@@H]1CC[C@H](C(F)(F)F)OC1"
7.57

Name the reported pEC50 value associated with the compound "CC(C)[C@@H]1CN(c2ccc(F)c(S(C)(=O)=O)c2)CCN1c1nc2c(F)cccc2s1"
6.43
